Test system: NCI-H460 lung
Test: NCI tumour cell line growth inhibition, 48 h
measuredProperty: TGI (µM)
Give bare numbers, in µM.

1. Cc1ccc(NC(=O)c2ccc(CN3CCN(C)CC3)c(C(F)(F)F)c2)cc1Oc1ccc(-c2[nH]nc3ncnc(N)c23)cc1 : 3.59
2. COc1cc(/C=C/C(=O)c2cc(OC)c(OC)c(OC)c2)ccc1Oc1nc(NCCO)nc(N2CCOCC2)n1 : 4.03
3. Cc1cc2nc(C(Cl)Cl)nc(-c3cccs3)n2n1 : 1.57

Please look at this compound and report its TGI: O=C(Nc1ccc(F)cc1)c1cc(-c2ccc(F)cc2F)ccc1O
12.8

---

Tested on: SK-OV-3 ovarian
Test: NCI tumour cell line growth inhibition, 48 h
measuredProperty: GI50

Study these solved cases before continuing.
1. IP(CCCCCCCCCCSc1n(Cc2ccc3ccccc3c2)c(-c2ccccc2)c(-c2ccccc2)[n+]1Cc1ccc2ccccc2c1)(c1ccccc1)(c1ccccc1)c1ccccc1 : 714 nM
2. N#Cc1cnc2ccc(-c3cnc4[nH]ncc4c3)cc2c1N1CCc2cc(F)c(Cl)cc21 : 214 nM

Items follow; give GI50 for each.
1. O=C(Nc1ccc(F)cc1)c1cc(-c2ccc(F)cc2F)ccc1O
2. Cc1cc2nc(C(Cl)Cl)nc(-c3cccs3)n2n1
3. COc1cc(/C=C/C(=O)c2cc(OC)c(OC)c(OC)c2)ccc1Oc1nc(NCCO)nc(N2CCOCC2)n1

1. 2650 nM
2. 2150 nM
3. 2440 nM
